Listed here: items and their measured log Pow* (P′ 90%).
Test: log Pow* calculated by Formula 2 from log Pow and the polarity parameter P′(x) of the ethanol/water mixture
Conditions: solvent ethanol, proportion 90%

>  <compound>
CCOC(=O)C(C)CC (stereo not shown) [Ethylmethylbutyrate-2]

>  <log Pow* (P′ 90%)>
0.65

$$$$
>  <compound>
CS [Methylmercaptan]

>  <log Pow* (P′ 90%)>
−5.67

$$$$
>  <compound>
CCCCOC(C)=O [Butylacetate]

>  <log Pow* (P′ 90%)>
−0.55

$$$$
>  <compound>
O=Cc1ccccc1 [Benzaldehyde]

>  <log Pow* (P′ 90%)>
−0.86

$$$$
>  <compound>
CCCCCCC1CCC(=O)O1 (stereo not shown) [gamma-decalactone]

>  <log Pow* (P′ 90%)>
0.65

$$$$
>  <compound>
CC(=O)C(C)=O [Diacetyl]

>  <log Pow* (P′ 90%)>
−4.42

$$$$
>  <compound>
SCc1ccco1 [Furfurylthiol-2]

>  <log Pow* (P′ 90%)>
−0.26

$$$$
>  <compound>
CCC/C=C/CO [2E-hexenol]

>  <log Pow* (P′ 90%)>
−0.60

$$$$
>  <compound>
Oc1ccccc1 [Phenol]

>  <log Pow* (P′ 90%)>
−1.30

$$$$
>  <compound>
CC(=O)/C=C/C1=C(C)CCCC1(C)C [beta-ionone]

>  <log Pow* (P′ 90%)>
2.78

$$$$
>  <compound>
CCC/C=C/C=O [2E-hexenal]

>  <log Pow* (P′ 90%)>
−0.94

$$$$
>  <compound>
CC(=O)/C=C/C1C(C)=CCCC1(C)C (stereo not drawn) [alpha-ionone]

>  <log Pow* (P′ 90%)>
2.80

$$$$
>  <compound>
CC/C=C\CC1CCCC(=O)O1 (stereo not shown) [Jasmine lactone]

>  <log Pow* (P′ 90%)>
0.81

$$$$
>  <compound>
CC1=CCC(C(C)(C)S)CC1 (stereo not shown) [p-menthenethiol-1,8]

>  <log Pow* (P′ 90%)>
3.02

$$$$
>  <compound>
OCc1ccco1 [Furfuryl alcohol]

>  <log Pow* (P′ 90%)>
−14.39

$$$$
>  <compound>
CCC(C)CO (stereo not shown) [2-mebutanol, 2-methylbutanol]

>  <log Pow* (P′ 90%)>
−1.89

$$$$
>  <compound>
CCCCCC(=O)OC [Methylcapronate]

>  <log Pow* (P′ 90%)>
0.51

$$$$
>  <compound>
C/C=C/C(=O)C1=C(C)C=CCC1(C)C [beta-damascenone]

>  <log Pow* (P′ 90%)>
3.47

$$$$
>  <compound>
O=Cc1ccco1 [Furfural]

>  <log Pow* (P′ 90%)>
−4.90

$$$$
>  <compound>
CCCCCC1CCCC(=O)O1 (stereo not shown) [delta decalactone]

>  <log Pow* (P′ 90%)>
0.72

$$$$
>  <compound>
C=C(C)[C@@H]1CCC2=CC(=O)C[C@@H](C)[C@]2(C)C1 [Nootkatone]

>  <log Pow* (P′ 90%)>
3.10

$$$$
>  <compound>
c1ccc2[nH]ccc2c1 [Indole]

>  <log Pow* (P′ 90%)>
0.22

$$$$

---

Here, each record is paired with measured log Pow* (P′ 100%) data.
Test: log Pow* calculated by Formula 2 from log Pow and the polarity parameter P′(x) of the ethanol/water mixture
Details: solvent ethanol, proportion 100%

>  <compound>
C/C=C/C(=O)C1=C(C)C=CCC1(C)C

>  <log Pow* (P′ 100%)>
3.42

$$$$
>  <compound>
CCCCCCC1CCC(=O)O1 (stereo not drawn)

>  <log Pow* (P′ 100%)>
0.57

$$$$
>  <compound>
SCc1ccco1

>  <log Pow* (P′ 100%)>
−0.36

$$$$
>  <compound>
CCOC(=O)C(C)CC (stereo not drawn) [Ethylmethylbutyrate-2]

>  <log Pow* (P′ 100%)>
0.57

$$$$
>  <compound>
CS

>  <log Pow* (P′ 100%)>
−5.97

$$$$
>  <compound>
CCC(C)CO (stereo not drawn)

>  <log Pow* (P′ 100%)>
−2.04

$$$$
>  <compound>
CC1=CCC(C(C)(C)S)CC1 (stereo not drawn)

>  <log Pow* (P′ 100%)>
2.98

$$$$
>  <compound>
CC(=O)/C=C/C1=C(C)CCCC1(C)C

>  <log Pow* (P′ 100%)>
2.73

$$$$
>  <compound>
CCC/C=C/CO

>  <log Pow* (P′ 100%)>
−0.71

$$$$
>  <compound>
c1ccc2[nH]ccc2c1

>  <log Pow* (P′ 100%)>
0.13

$$$$
>  <compound>
CCCCCC1CCCC(=O)O1 (stereo not drawn)

>  <log Pow* (P′ 100%)>
0.64

$$$$
>  <compound>
O=Cc1ccccc1

>  <log Pow* (P′ 100%)>
−0.98

$$$$

---

Readings of log Pow* (P′ 60%) for the listed compounds
Assay: log Pow* calculated by Formula 2 from log Pow and the polarity parameter P′(x) of the ethanol/water mixture
Settings: solvent ethanol, proportion 60%
assay readout: log Pow* (P′ 60%)

>  <compound>
CCOC(=O)C(C)CC (stereo not shown) [Ethylmethylbutyrate-2]

>  <assay readout>
log Pow* (P′ 60%)

>  <value>
0.97

$$$$
>  <compound>
CCC(C)CO (stereo not shown)

>  <assay readout>
log Pow* (P′ 60%)

>  <value>
−1.31

$$$$
>  <compound>
CCCCCC1CCCC(=O)O1 (stereo not shown)

>  <assay readout>
log Pow* (P′ 60%)

>  <value>
1.03

$$$$
>  <compound>
CC1=CCC(C(C)(C)S)CC1 (stereo not shown)

>  <assay readout>
log Pow* (P′ 60%)

>  <value>
3.21

$$$$
>  <compound>
CS

>  <assay readout>
log Pow* (P′ 60%)

>  <value>
−4.51

$$$$
>  <compound>
CCCCOC(C)=O [Butylacetate]

>  <assay readout>
log Pow* (P′ 60%)

>  <value>
−0.13

$$$$
>  <compound>
O=Cc1ccco1

>  <assay readout>
log Pow* (P′ 60%)

>  <value>
−3.87

$$$$
>  <compound>
CC/C=C\CC1CCCC(=O)O1 (stereo not shown)

>  <assay readout>
log Pow* (P′ 60%)

>  <value>
1.11

$$$$
>  <compound>
CCC/C=C/CO

>  <assay readout>
log Pow* (P′ 60%)

>  <value>
−0.17

$$$$
>  <compound>
CC(=O)/C=C/C1C(C)=CCCC1(C)C (stereo not shown)

>  <assay readout>
log Pow* (P′ 60%)

>  <value>
2.99

$$$$
>  <compound>
CCCCCC(=O)OC [Methylcapronate]

>  <assay readout>
log Pow* (P′ 60%)

>  <value>
0.84

$$$$
>  <compound>
CCC/C=C/C=O

>  <assay readout>
log Pow* (P′ 60%)

>  <value>
−0.47

$$$$
>  <compound>
C=C(C)[C@@H]1CCC2=CC(=O)C[C@@H](C)[C@]2(C)C1

>  <assay readout>
log Pow* (P′ 60%)

>  <value>
3.28

$$$$

---

Experiment: log Pow* calculated by Formula 2 from log Pow and the polarity parameter P′(x) of the ethanol/water mixture
Details: solvent ethanol, proportion 4%
Each item that follows carries a reported log Pow* (P′ 4%).

>  <compound>
O=Cc1ccccc1 [Benzaldehyde]

>  <log Pow* (P′ 4%)>
1.40

$$$$
>  <compound>
CCOC(=O)C(C)CC (stereo not shown) [Ethylmethylbutyrate-2]

>  <log Pow* (P′ 4%)>
2.22

$$$$
>  <compound>
CCC(C)CO (stereo not shown) [2-mebutanol, 2-methylbutanol]

>  <log Pow* (P′ 4%)>
0.99

$$$$
>  <compound>
Oc1ccccc1 [Phenol]

>  <log Pow* (P′ 4%)>
1.22

$$$$
>  <compound>
CC(=O)C(C)=O [Diacetyl]

>  <log Pow* (P′ 4%)>
−1.62

$$$$
>  <compound>
CCC/C=C/CO [2E-hexenol]

>  <log Pow* (P′ 4%)>
1.53

$$$$
>  <compound>
CCCCOC(C)=O [Butylacetate]

>  <log Pow* (P′ 4%)>
1.55

$$$$

---

Assay: log Pow* calculated by Formula 2 from log Pow and the polarity parameter P′(x) of the ethanol/water mixture

>  <compound>
CCCSSC [Methylpropyldisulfide]

>  <log Pow* (P′ 4%)>
2.69

$$$$
>  <compound>
CC/C=C\CC1C(=O)CCC1CC(=O)OC (centres unmarked) [Methyl jasmonate]

>  <log Pow* (P′ 4%)>
1.94

$$$$
>  <compound>
CCCSSCCC [Dipropyldisulfide]

>  <log Pow* (P′ 4%)>
3.80

$$$$
>  <compound>
C=Cc1ccc(O)c(OC)c1

>  <log Pow* (P′ 4%)>
2.32

$$$$
>  <compound>
CC(C)=CCCC(C)=CC=O

>  <log Pow* (P′ 4%)>
3.05

$$$$
>  <compound>
C=CC(C)(O)CCC=C(C)C (centres unmarked)

>  <log Pow* (P′ 4%)>
3.16

$$$$
>  <compound>
CCCCCCCC=O

>  <log Pow* (P′ 4%)>
2.90

$$$$
>  <compound>
CC(C)CCO

>  <log Pow* (P′ 4%)>
0.98

$$$$
>  <compound>
CCCCCCOC(C)=O [Hexylacetate]

>  <log Pow* (P′ 4%)>
2.69

$$$$
>  <compound>
CCCCCC=O

>  <log Pow* (P′ 4%)>
1.77

$$$$
>  <compound>
CCCC(=O)OCC [Ethylbutyrate]

>  <log Pow* (P′ 4%)>
1.55

$$$$
